Hi there, I'd appreciate the recorded growth for every entry that follows.
test system: BT-549 breast; experiment: NCI-60 one-dose screen, 48 h (100 = growth as untreated, 0 = no growth, -100 = all killed); settings: 10 µM
Compounds without any hit were thinned out: in the full panel of roughly 83,000, 20% have a hit. The source made the active and inactive calls. Rule for the calls: active = growth percent below 10; inactive = the rest.

// query Requested field: growth. Item: Cc1cc(C)c(/C=C2\C(=O)Nc3ccc(NC(=O)CCCCCCC(=O)NO)cc32)[nH]1
// result 47.5% (inactive)

// query Requested field: growth. Item: CC1(C)CCc2cc(-c3ccn(S(=O)(=O)c4ccc(Cl)cc4)n3)ccc2O1
// result 88.8% (inactive)

// query Requested field: growth. Item: FC(F)(F)c1ccc(-c2nc(-c3nc4cc(Cl)c(Cl)cc4[nH]3)c3ccccn23)cc1
// result 88.2% (inactive)

// query Requested field: growth. Item: CN(C)Cc1cccs1
// result 96.6% (inactive)

// query Requested field: growth. Item: COc1ccc(-c2ccc(-c3ccc(C(=N)N)c(F)c3)s2)cc1
// result -91.7% (active)

// query Requested field: growth. Item: C=CCOc1ccc2c(c1)CC=C1[C@@H]2CC[C@]2(C)C(=O)/C(=N/O)C[C@@H]12
// result 89.1% (inactive)

// query Requested field: growth. Item: COc1ccc(C(=O)c2sc3nc(-c4cccs4)ccc3c2N)cc1OC
// result 48.9% (inactive)

// query Requested field: growth. Item: CN(C)CCCN(Cc1ccccc1O)C(=S)Nc1ccc(Cl)cc1
// result 105% (inactive)

// query Requested field: growth. Item: CCc1c(C(=O)NCc2c(O)ccc3cccc(O)c23)[nH]c(C)c1C(C)=O
// result 34.5% (inactive)

Cited source for all entries: PubChem BioAssay (NCI)
